# system.tested: Estrogen receptor (Homo sapiens) (UniProt P03372)
# Sequence (P03372 whole entry, looked up): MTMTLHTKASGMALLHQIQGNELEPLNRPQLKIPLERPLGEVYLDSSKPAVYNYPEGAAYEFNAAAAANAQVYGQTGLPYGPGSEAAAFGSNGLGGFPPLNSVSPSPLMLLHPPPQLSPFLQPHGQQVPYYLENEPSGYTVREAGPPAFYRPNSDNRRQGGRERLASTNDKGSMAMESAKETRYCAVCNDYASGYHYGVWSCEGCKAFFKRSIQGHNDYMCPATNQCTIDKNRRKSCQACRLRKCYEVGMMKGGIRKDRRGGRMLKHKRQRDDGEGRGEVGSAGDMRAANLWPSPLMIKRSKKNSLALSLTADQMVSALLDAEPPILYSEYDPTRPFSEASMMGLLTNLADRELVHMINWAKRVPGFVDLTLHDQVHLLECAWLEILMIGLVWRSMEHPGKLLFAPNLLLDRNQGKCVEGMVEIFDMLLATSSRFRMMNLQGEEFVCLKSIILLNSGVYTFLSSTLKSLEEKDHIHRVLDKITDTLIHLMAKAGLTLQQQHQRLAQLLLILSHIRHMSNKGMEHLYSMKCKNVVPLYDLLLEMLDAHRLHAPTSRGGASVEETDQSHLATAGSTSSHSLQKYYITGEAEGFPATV
# test.description: qHTS assay to identify small molecule agonists of the estrogen receptor alpha (ER-alpha) signaling pathway (AID 743075);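 note: HEK293 GripTite cells with ER-alpha and UAS-driven beta-lactamase reporter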
# conditions.used: HEK293 ER-alpha-UAS-bla, beta-lactamase FRET ratio, 18 h; series mostly up to 70.1 µM
Inconclusive results are not listed. The source made the active and inactive calls. Calls come from the whole dose curve.
Outcome codes: label 1 = active, label 0 = inactive

{"compound": "CCNC(=O)NCCCOc1cccc(CN2CCCCC2)c1", "group.label": "label 0"}
{"compound": "CCOC(=O)C(C)(C)C", "group.label": "label 0"}
{"compound": "CCC(O)C(C)(C)C (stereo not given)", "group.label": "label 0"}
{"compound": "FC(F)(F)/C(=N\\OCC1OCCO1)c1ccc(Cl)cc1", "group.label": "label 0"}
{"compound": "Cc1ccccc1OCC1CO1 (stereo not given)", "group.label": "label 0"}
{"compound": "CCS(=O)(=O)CCn1c([N+](=O)[O-])cnc1C", "group.label": "label 1"}
{"compound": "O=C1CC[C@H](C(=O)N2CCCCC2)N1", "group.label": "label 0"}
{"compound": "Nc1cc(Cl)cc(S(=O)(=O)O)c1O", "group.label": "label 0"}
{"compound": "CC(C)COC(=O)/C=C/c1ccccc1", "group.label": "label 0"}
{"compound": "CCC1COC(=O)O1 (stereo not given)", "group.label": "label 0"}
{"compound": "CCN(Cc1cccc(S(=O)(=O)O)c1)c1ccccc1", "group.label": "label 0"}
{"compound": "CCOC(=O)CCCCCCCCC(=O)OCC", "group.label": "label 0"}
{"compound": "Cc1nc2ccccc2c(=O)o1", "group.label": "label 0"}
{"compound": "CCCCCCCCCCCCC1CO1 (stereo not given)", "group.label": "label 0"}
{"compound": "CC(=O)OC(C)c1ccccc1 (stereo not given)", "group.label": "label 0"}
